The reported numbers originate from patent US10131663B2.

Molecular target: estrogen receptor (ERα) in CAMA-1 cells (Homo sapiens (Human), UniProt P03372)
Sequence (P03372 whole entry): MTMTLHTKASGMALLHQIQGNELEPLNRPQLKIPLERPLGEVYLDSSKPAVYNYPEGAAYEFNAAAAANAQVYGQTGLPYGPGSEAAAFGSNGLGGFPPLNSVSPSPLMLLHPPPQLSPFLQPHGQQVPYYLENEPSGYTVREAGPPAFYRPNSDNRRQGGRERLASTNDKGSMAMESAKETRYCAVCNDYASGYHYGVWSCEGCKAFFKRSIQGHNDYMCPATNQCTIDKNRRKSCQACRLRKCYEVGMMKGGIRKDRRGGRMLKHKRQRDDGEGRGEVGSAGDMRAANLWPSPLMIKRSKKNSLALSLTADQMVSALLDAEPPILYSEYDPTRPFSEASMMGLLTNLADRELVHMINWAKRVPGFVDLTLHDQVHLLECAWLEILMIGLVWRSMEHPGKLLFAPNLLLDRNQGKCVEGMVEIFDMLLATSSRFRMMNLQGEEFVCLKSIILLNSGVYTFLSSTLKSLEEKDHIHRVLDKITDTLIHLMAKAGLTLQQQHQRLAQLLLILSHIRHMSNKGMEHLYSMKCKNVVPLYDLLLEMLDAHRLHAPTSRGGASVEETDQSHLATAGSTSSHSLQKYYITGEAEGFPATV
Assay: Western blotting assay, ER down-regulation in CAMA-1
Assay type: cell-based
Settings: 100 nM compound, 48 h, normalised to 100 nM fulvestrant
Reported metric: CAMA1 Western % ER deg vs Fv (%)

>>> quantitative_readout("COc1cc(NC2CN(CCCF)C2)ccc1[C@@H]1c2ccc3[nH]ncc3c2C[C@@H](C)N1CC(C)(C)F [Example 64]")
89
>>> quantitative_readout("COc1cc(NC2CN(CCCF)C2)ccc1[C@@H]1c2ccc3[nH]ncc3c2C[C@@H](C)N1CC(F)F [Example 21]")
101
>>> quantitative_readout("C[C@@H]1Cc2c(ccc3[nH]ncc23)[C@@H](c2ccc(NC3CN(CCCF)C3)cn2)N1CC(F)(F)F [Example 17]")
96
>>> quantitative_readout("C[C@@H]1Cc2c(ccc3[nH]ncc23)[C@@H](c2c(F)cc(NC3CN(CCCF)C3)cc2F)N1CC(F)(F)F [Example 8]")
100
>>> quantitative_readout("C[C@@H]1Cc2c(ccc3[nH]ncc23)[C@@H](c2ccc(NC3CN(CCCF)C3)cn2)N1CC(F)(F)CO [Example 16]")
105
>>> quantitative_readout("C[C@@H]1Cc2c(ccc3[nH]ncc23)[C@@H](c2ccc(NC3CN(CCCF)C3)nc2F)N1CC(F)(F)F [Example 40]")
120
>>> quantitative_readout("C[C@@H]1Cc2c(ccc3[nH]nc(F)c23)[C@@H](c2ccc(NC3CN(CCCF)C3)cn2)N1CC(F)(F)F [Example 32]")
89
>>> quantitative_readout("COc1cc(NC2CN(CCC(F)(F)F)C2)ccc1[C@@H]1c2ccc3[nH]ncc3c2C[C@@H](C)N1CC1(F)CC1 [Example 56]")
52
>>> quantitative_readout("COc1cc(NC2CN(CCCF)C2)c(F)cc1[C@@H]1c2ccc3[nH]ncc3c2C[C@@H](C)N1CC1(F)CC1 [Example 53]")
46
>>> quantitative_readout("C[C@@H]1Cc2c(ccc3[nH]ncc23)[C@@H](c2ncc(NC3CN(CCCF)C3)cc2F)N1CC(F)(F)F [Example 30]")
98
>>> quantitative_readout("C[C@@H]1Cc2c(ccc3[nH]ncc23)[C@@H](c2ccc(NC3CN(CCCF)C3)cn2)N1CC1(F)CC1 [Example 3]")
102
>>> quantitative_readout("C[C@@H]1Cc2c(ccc3[nH]ncc23)[C@@H](c2ccc(OC3CN(CCCF)C3)cn2)N1CC(F)F [Example 26]")
97
>>> quantitative_readout("COc1cc(OC2CN(CCCF)C2)ccc1[C@@H]1c2ccc3[nH]ncc3c2C[C@@H](C)N1CC1(F)CC1 [Example 7]")
90
>>> quantitative_readout("COCC(F)(F)CN1[C@H](c2ccc(NC3CN(CCCF)C3)cc2OC)c2ccc3[nH]ncc3c2C[C@H]1C [Example 1]")
92
>>> quantitative_readout("C[C@@H]1Cc2c(ccc3[nH]ncc23)[C@@H](c2ncc(NC3CN(CCCF)C3)cc2F)N1CC1(F)CC1 [Example 18]")
95
>>> quantitative_readout("C[C@@H]1Cc2c(ccc3[nH]nc(F)c23)[C@@H](c2ncc(NC3CN(CCCF)C3)cc2F)N1CC(F)(F)F [Example 33]")
102
>>> quantitative_readout("C[C@@H]1Cc2c(ccc3[nH]ncc23)[C@@H](c2ncc(OC3CN(CCCF)C3)cc2F)N1CC(F)(F)CO [Example 59]")
102
>>> quantitative_readout("COc1cc(NC2CN(CCCF)C2)ccc1[C@@H]1c2ccc3[nH]ncc3c2C[C@@H](C)N1CC(F)(F)F [Example 28]")
110
>>> quantitative_readout("COc1cc(NC2CN(CCCF)C2)ccc1[C@@H]1c2ccc3[nH]ncc3c2C[C@@H](C)N1CC1(F)CC1 [Example 6]")
84
>>> quantitative_readout("C[C@@H]1Cc2c(ccc3[nH]ncc23)[C@@H](c2cnc(NC3CN(CCCF)C3)cn2)N1CC(F)(F)F [Example 42]")
79
>>> quantitative_readout("C[C@@H]1Cc2c(ccc3[nH]ncc23)[C@@H](c2c(F)cc(NC3CN(CCCF)C3)cc2F)N1CC(F)(F)CO [Example 5]")
109
>>> quantitative_readout("C[C@@H]1Cc2c(ccc3[nH]ncc23)[C@@H](c2ccc(NC3CN(CCCF)C3)cc2)N1CC(F)F [Example 48]")
94
>>> quantitative_readout("CC(C)CN1[C@H](c2ccc(NC3CN(CCCF)C3)cn2)c2ccc3[nH]ncc3c2C[C@H]1C [Example 69]")
98
>>> quantitative_readout("COCC(F)(F)CN1[C@H](c2ccc(NC3CN(CCCF)C3)cn2)c2ccc3[nH]ncc3c2C[C@H]1C [Example 2]")
95
